Values compiled from patent US20220411421A1.

Please provide measured Ratio of TLR8 EC50 and TLR7 EC50 for the entries that follow.
target_under_test: hTLR8 (Homo sapiens, UniProt Q9NR97)
Construct: expressed in transfected cells; host or cells: HEK-Blue hTLR8 cells
Sequence (Q9NR97 27-1041): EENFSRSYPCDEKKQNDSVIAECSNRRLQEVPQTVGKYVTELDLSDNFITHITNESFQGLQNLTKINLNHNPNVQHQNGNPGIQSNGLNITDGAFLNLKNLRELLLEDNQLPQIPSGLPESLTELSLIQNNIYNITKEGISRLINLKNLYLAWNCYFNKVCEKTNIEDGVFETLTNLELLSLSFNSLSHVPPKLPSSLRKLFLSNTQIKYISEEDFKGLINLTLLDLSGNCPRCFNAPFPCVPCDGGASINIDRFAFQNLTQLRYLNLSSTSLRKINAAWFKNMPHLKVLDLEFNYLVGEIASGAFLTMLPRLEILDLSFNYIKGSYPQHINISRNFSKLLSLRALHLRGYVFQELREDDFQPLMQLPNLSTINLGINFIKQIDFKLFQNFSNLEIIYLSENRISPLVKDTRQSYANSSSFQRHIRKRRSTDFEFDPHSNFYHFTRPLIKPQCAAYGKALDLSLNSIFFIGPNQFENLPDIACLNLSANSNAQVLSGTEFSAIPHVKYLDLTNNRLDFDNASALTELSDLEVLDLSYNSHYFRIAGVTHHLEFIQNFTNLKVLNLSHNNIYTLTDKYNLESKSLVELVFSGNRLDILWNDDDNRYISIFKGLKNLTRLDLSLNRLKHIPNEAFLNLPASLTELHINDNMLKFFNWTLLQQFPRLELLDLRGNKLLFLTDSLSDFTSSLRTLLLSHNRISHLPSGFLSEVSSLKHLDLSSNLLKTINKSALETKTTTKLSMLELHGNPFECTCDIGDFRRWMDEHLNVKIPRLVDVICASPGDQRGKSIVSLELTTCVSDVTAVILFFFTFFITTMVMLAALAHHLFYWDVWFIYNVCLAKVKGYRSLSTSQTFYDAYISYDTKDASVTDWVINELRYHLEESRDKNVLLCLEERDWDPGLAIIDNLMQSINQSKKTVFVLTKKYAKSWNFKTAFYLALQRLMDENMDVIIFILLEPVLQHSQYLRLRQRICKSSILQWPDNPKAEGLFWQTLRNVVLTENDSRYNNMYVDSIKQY
test_details: hTLR8 agonistic activity, HEK-Blue hTLR8 SEAP reporter gene assay
Format: cell-based
measurement_parameters: TLR8 EC50 / TLR7 EC50, HEK-Blue reporter cells
Reply: number alone, nothing else.

Reported hTLR8 (Homo sapiens, UniProt Q9NR97) Ratio of TLR8 EC50 and TLR7 EC50 for item `CCCCCc1nc2c(N)nc3ccccc3c2n1CC(C)(C)O` was 3.98

Reported hTLR8 (Homo sapiens, UniProt Q9NR97) Ratio of TLR8 EC50 and TLR7 EC50 for item `CC(C)(O)Cn1c(CCCCC(F)(F)F)nc2c(N)nc3ccccc3c21` was 8.74

Reported hTLR8 (Homo sapiens, UniProt Q9NR97) Ratio of TLR8 EC50 and TLR7 EC50 for item `CCCc1nc2c(N)nc3ccccc3c2n1CC(C)(C)O` was 22.36

Reported hTLR8 (Homo sapiens, UniProt Q9NR97) Ratio of TLR8 EC50 and TLR7 EC50 for item `CC(C)(O)Cn1c(CCCC(F)(F)F)nc2c(N)nc3ccccc3c21` was 7.49
